- target-or-system: human OT7T175 (metastin receptor) (human, UniProt Q969F8 1-398)
- Sequence (Q969F8 whole entry L364H): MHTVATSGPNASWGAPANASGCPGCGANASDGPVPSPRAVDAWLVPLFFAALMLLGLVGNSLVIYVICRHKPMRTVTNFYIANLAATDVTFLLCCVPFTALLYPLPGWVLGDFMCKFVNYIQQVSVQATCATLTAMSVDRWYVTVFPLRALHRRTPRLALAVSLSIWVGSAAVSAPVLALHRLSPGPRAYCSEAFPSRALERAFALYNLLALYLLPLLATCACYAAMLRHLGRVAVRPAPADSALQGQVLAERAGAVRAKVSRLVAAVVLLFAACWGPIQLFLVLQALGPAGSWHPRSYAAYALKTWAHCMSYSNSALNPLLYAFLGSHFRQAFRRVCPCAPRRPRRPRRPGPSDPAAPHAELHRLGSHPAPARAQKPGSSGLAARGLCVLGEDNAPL
- assay-explanation: cell-based or functional assay
Non-standard residues stand in square brackets, D forms with d. No end group written: not given here. Arg(Me) = CNC(=N)NCCC[C@H](N)C(=O)O; d3Pal = N[C@H](Cc1cccnc1)C(=O)O; azaGly = NNC(=O)O
measure: Ca ion level-increasing activity (FLIPR)

Which value of Ca ion level-increasing activity (FLIPR) has been reported for [d3Pal]NWNSF[azaGly]L[Arg(Me)]F-NH2 (N-terminus assumed; SMILES CNC(=N)NCCC[C@H](NC(=O)[C@H](CC(C)C)NC(=O)NNC(=O)[C@H](Cc1ccccc1)NC(=O)[C@H](CO)NC(=O)[C@H](CC(N)=O)NC(=O)[C@H](Cc1c[nH]c2ccccc12)NC(=O)[C@H](CC(N)=O)NC(=O)[C@H](N)Cc1cccnc1)C(=O)N[C@@H](Cc1ccccc1)C(N)=O, also called Compound No. 258) [[D-Pya(3)1,AzaGly7,Arg(Me)9]MS10] in the records?
2 x Metastin (1-54)

Values compiled from patent US20090298765A1.
